# target.or.system: Human M4 (Homo sapiens, UniProt P08173)
# Construct: expressed in transfected cells
# Sequence (P08173 whole entry): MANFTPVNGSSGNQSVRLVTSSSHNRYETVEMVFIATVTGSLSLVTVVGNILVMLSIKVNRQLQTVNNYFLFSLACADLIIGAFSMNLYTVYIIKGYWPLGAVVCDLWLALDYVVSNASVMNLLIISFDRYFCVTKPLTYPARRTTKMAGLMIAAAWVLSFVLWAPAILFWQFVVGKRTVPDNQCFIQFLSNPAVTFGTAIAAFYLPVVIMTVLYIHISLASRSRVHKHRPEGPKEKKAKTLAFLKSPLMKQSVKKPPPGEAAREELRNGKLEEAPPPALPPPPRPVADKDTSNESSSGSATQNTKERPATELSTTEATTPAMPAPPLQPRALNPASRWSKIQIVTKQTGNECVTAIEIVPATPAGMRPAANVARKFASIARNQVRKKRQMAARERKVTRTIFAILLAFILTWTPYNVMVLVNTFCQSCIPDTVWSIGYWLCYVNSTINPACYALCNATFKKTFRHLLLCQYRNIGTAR
# method: mAChR M4 cell-based functional assay (calcium flux, PAM mode)
# experimental.conditions: CHO-K1, % ACh maximum at 30 μM; hM4-Gqi5 CHO-K1 cells
property.measured: Emax at 30 µM (%)

| molecule | Emax at 30 µM (%) |
| --- | --- |
| Cc1cc2nccc(=O)n2nc1N1CC[C@@H](Oc2ccc3c(c2)OCCO3)[C@H](F)C1 [Compound 32] | 81 |
| Cc1cc2nccc(=O)n2nc1N1CC[C@@H](Oc2ccc3c(c2)CCOC3)[C@H](F)C1 [Compound 54] | 89 |
| Cc1c(N2CCC(Oc3ccc(F)cc3)CC2)nn2c(=O)cc(C(F)F)nc2c1C [Compound 84] | 86 |
| [2H]C1(Oc2ccc3c(c2)OC([2H])([2H])C([2H])([2H])O3)CCN(c2nn3c(=O)cc(COC)nc3cc2C)CC1 [Compound 109] | 97 |
| Cc1c(N2CC[C@H](Oc3ccc4c(c3)OCCO4)C[C@H]2C)nn2c(=O)ccnc2c1C [Compound 134] | 105 |
| Cc1c(N2CCC(Oc3ccc4c(c3)OCCO4)CC2)nn2c(=O)ccnc2c1C1CC1 [Compound 20] | 81 |
| Cc1cc(=O)n2nc(N3CCC(Oc4ccc5c(c4)C(=O)N(C)CC5)CC3)c(C)cc2n1 [Compound 73] | 85 |
| Cc1c(N2CCC(Oc3ccc(Cl)cc3)CC2)nn2c(=O)cc(C(F)F)nc2c1C [Compound 79] | 76 |
| [2H]C1(Oc2ccc3c(c2)OC([2H])([2H])C([2H])([2H])O3)CCN(c2nn3c(=O)c(C)c(C)nc3cc2C)CC1 [Compound 47] | 81 |
